target: human Dopamine D2 receptor (Homo sapiens, UniProt P14416); construct: purchased BioSignal, Inc. (Montreal, Canada); assay: Binding affinity at the human dopamine D2 receptor; conditions: Table 3c; read-out: hD2 Ki
Sequence (P14416 whole entry): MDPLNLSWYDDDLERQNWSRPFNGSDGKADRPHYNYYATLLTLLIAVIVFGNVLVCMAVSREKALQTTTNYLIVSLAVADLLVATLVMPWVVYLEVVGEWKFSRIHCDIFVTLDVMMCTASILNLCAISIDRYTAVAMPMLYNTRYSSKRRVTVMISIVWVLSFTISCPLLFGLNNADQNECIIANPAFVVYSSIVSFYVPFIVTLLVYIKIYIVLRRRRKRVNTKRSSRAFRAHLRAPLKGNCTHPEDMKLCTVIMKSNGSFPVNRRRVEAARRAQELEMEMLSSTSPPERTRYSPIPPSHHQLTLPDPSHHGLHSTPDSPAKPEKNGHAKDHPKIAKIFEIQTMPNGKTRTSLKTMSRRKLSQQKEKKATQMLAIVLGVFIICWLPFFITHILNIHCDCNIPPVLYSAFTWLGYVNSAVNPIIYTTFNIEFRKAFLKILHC
Please go through the items and note down their pKi.
Note: pKi values are expressed as the negative base-10 logarithm of concentration in M.

Problem: # input molecule: CC(C)C(=O)Nc1cccc(C2CCN(CCCCc3ccccc3)CC2)c1 ; wanted: its pKi
Result: 5.13

Problem: What do you have for COc1cccc(CC(=O)Nc2cccc(C3CCN(CCCC(=O)c4ccccc4)CC3)c2)c1 ?
Result: 6.33

Problem: What do you have for CC(C)C(=O)Nc1cccc(C2CCN(CC[C@H](Oc3ccc(-c4ccccc4)cc3)c3ccccc3)CC2)c1 ?
Result: 7.42

Problem: What do you have for CC(C)C(=O)Nc1cccc(C2CCN(CC[C@@H](Oc3ccc(Cl)c(Cl)c3)c3ccccc3)CC2)c1 ?
Result: 6.79
